experiment: Pharmacokinetic study in rats; type: in vivo; details: both sexes, Sprague-Dawley, rat, plasma, IV, 1 mg/kg
measured metric: clearance (mL/min/kg)
Entry rule: numbers only, all in mL/min/kg.

In: // clearance lookup, key: CS(=O)(=O)O.FCCCN1CC[C@H](Nc2cnc(C3=C(CC(F)(F)F)CCCc4c3ccc3[nH]nc(F)c43)cn2)C1
Out: 22.1

* * *

experiment: Pharmacokinetic study in mice; format: in vivo; conditions: female, Balb/c, mouse, plasma, PO, 10 mg/kg
measured metric: AUC(0-t) (µM·h)
Entry rule: numbers only, all in µM·h.

In: // AUC(0-t) lookup, key: FCCCN1CC[C@H](Nc2cnc(C3=C(CC(F)(F)F)CCCc4c3ccc3[nH]nc(F)c43)cn2)C1
Out: 5.86

From: patent US12410155B2
